From: patent US20240317871A1

# target_or_test_system: T1, His-tagged human HVEM (human, UniProt Q92956 39-202, limits assumed)
# T1 construct: Analyte of the BLI assay, 200 nM in PBS; not shown: His tag
# T1 sequence (looked up): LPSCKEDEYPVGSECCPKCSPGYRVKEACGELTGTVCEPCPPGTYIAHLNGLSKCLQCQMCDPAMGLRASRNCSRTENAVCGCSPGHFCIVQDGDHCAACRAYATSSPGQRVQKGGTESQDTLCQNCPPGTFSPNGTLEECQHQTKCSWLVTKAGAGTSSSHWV
# procedure_details: BLI OctetRed96, mAb captured, 200 nM His-HVEM
Please provide measured Kd for the entries that follow.

For every listed record, write down its Kd.
1. Ab_083 (H5S20-49A39A) (antibody, V domains shown, also called Ab_153; Ab_83) VH: EVQLQQSGAELVKPGASVKLSCTASGFNIKDTYVHWVKERPEQGLEWIGRIDPANDNTKYAPKFQVKATITADTSSNTAYLQLSSLTSEDNAVYYCAPYGNYPAWFAYWGQGTLVTVSA VL: DVLMTQTPLSLPVSLGDQVSISCRSSQNIVHSNGNTYLEWYLQKPGQSPKLLIYKVSNRFSGVPDRFSGSGSGTDFTLKISRVEAEDLGVYYCFQGSHVPLTFGAGTKLELK
2. Ab_001 (H5S14-1A1A) (antibody, V domains shown, also called Ab_1) VH: DVKLVESGGGLVKPGGSLKLSCAASVFTFSRYTMSWVRQTPEKRLEWVATISSGGSYTYYPDSVKGRFTISRDNAKNTLYLQMSSLKSEDTAIYYCTRGGDGLFDYWGQGTALTVSS VL: DVQITQSPSYLAASPGETITINCRASKSISKYLAWYQEKPGKTNQLLIYSGSTLQSGIPSRFSGSGSGTDFTLTISSLEPEDFAMYYCQQHNEYPWTFGGGTKLEIK

Result:
["65.8 nM", "550 nM"]
